Each entry below carries its recorded PT.
Species on record: Rattus norvegicus
ASSAY: Open TG-GATES - Regimen: Daily Repeat
Type: toxicity, organism-based, Sprague-Dawley
Parameters: regimen Daily Repeat, gender Male, age 6 weeks
RUN_PARAMETERS: in vivo, po, 0 mg/kg, […], tissue Blood, route gavage, dose level Control, time 14 day
Express your answer in s, writing the number without its unit.

Please review the entries below; each comes with its answer.
[
  {
    "COMPOUND": "O=C(OC[C@H]1O[C@@H](OC(=O)c2cc(O)c(O)c(OC(=O)c3cc(O)c(O)c(O)c3)c2)[C@H](OC(=O)c2cc(O)c(O)c(OC(=O)c3cc(O)c(O)c(O)c3)c2)[C@@H](OC(=O)c2cc(O)c(O)c(OC(=O)c3cc(O)c(O)c(O)c3)c2)[C@@H]1OC(=O)c1cc(O)c(O)c(OC(=O)c2cc(O)c(O)c(O)c2)c1)c1cc(O)c(O)c(OC(=O)c2cc(O)c(O)c(O)c2)c1 [TANNIC ACID]",
    "UNIT_SPEC": "s",
    "EXPERIMENTAL_RESULT": 11.5
  },
  {
    "COMPOUND": "Brc1ccccc1 [BROMOBENZENE]",
    "UNIT_SPEC": "s",
    "EXPERIMENTAL_RESULT": 12
  },
  {
    "COMPOUND": "NC1=NC(=O)C(c2ccccc2)O1 (centres undefined) [PEMOLINE]",
    "UNIT_SPEC": "s",
    "EXPERIMENTAL_RESULT": 12.8
  },
  {
    "COMPOUND": "CN/C(=N/CCSCc1nc[nH]c1C)NC#N [CIMETIDINE]",
    "UNIT_SPEC": "s",
    "EXPERIMENTAL_RESULT": 12.1
  },
  {
    "COMPOUND": "CNC(=C[N+](=O)[O-])NCCSCc1ccc(CN(C)C)o1 [RANITIDINE]",
    "UNIT_SPEC": "s",
    "EXPERIMENTAL_RESULT": 12
  },
  {
    "COMPOUND": "CN(C)CCC(c1ccc(Cl)cc1)c1ccccn1 (centres undefined) [CHLORPHENIRAMINE]",
    "UNIT_SPEC": "s",
    "EXPERIMENTAL_RESULT": 14.5
  }
]

Qu. Entry COC(=O)C1=C(C)NC(C)=C(C(=O)OC)C1c1ccccc1[N+](=O)[O-] [NIFEDIPINE] needs its PT filled in; supply it.
Ans. 14.2

Qu. Entry Nc1c2c(nc3ccccc13)CCCC2 [TACRINE] needs its PT filled in; supply it.
Ans. 15.6

Qu. Entry CN1C(=O)CCS(=O)(=O)C1c1ccc(Cl)cc1 (centres undefined) [CHLORMEZANONE] needs its PT filled in; supply it.
Ans. 11.8

----------
Organism: Rattus norvegicus
ASSAY: Open TG-GATES - Regimen: Single
Assay type: toxicity, organism-based, Sprague-Dawley
Set-up: regimen Single, gender Male, age 6 weeks
RUN_PARAMETERS: in vivo, po, 100 mg/kg, 6 h, tissue Plasma, route gavage, dose level Low
I'd appreciate it if you marked entries fulfilled when ALP is lower than 1000 IU/L and not fulfilled when it is not.

Answered examples (4):
[
  {
    "STRUCTURE_STRING": "CNC(=C[N+](=O)[O-])NCCSCc1ccc(CN(C)C)o1",
    "CLASSIFICATION": "fulfilled"
  },
  {
    "STRUCTURE_STRING": "COC(=O)C1=C(C)NC(C)=C(C(=O)OC)C1c1ccccc1[N+](=O)[O-]",
    "CLASSIFICATION": "not fulfilled"
  },
  {
    "STRUCTURE_STRING": "CN/C(=N/CCSCc1nc[nH]c1C)NC#N",
    "CLASSIFICATION": "fulfilled"
  },
  {
    "STRUCTURE_STRING": "O=C(OC[C@H]1O[C@@H](OC(=O)c2cc(O)c(O)c(OC(=O)c3cc(O)c(O)c(O)c3)c2)[C@H](OC(=O)c2cc(O)c(O)c(OC(=O)c3cc(O)c(O)c(O)c3)c2)[C@@H](OC(=O)c2cc(O)c(O)c(OC(=O)c3cc(O)c(O)c(O)c3)c2)[C@@H]1OC(=O)c1cc(O)c(O)c(OC(=O)c2cc(O)c(O)c(O)c2)c1)c1cc(O)c(O)c(OC(=O)c2cc(O)c(O)c(O)c2)c1",
    "CLASSIFICATION": "fulfilled"
  }
]

Shift focus to the following entry.
Qu. Regarding Cc1nnc2n1-c1ccc(Cl)cc1C(c1ccccc1Cl)=NC2 , kindly confirm whether its ALP is beneath 1000 IU/L.
Ans. not fulfilled

----------
Organism: Rattus norvegicus
ASSAY: Open TG-GATES - Regimen: Single
Format: toxicity, organism-based, Sprague-Dawley
Design: regimen Single, gender Male, age 6 weeks
RUN_PARAMETERS: in vivo, po, 1000 mg/kg, 9 h, tissue Blood, route gavage, dose level High
OBSERVATION_TYPE: MCHC (%)
Express your answer in %, writing the number without its unit.

Please review the entries below; each comes with its answer.
[
  {
    "STRUCTURE_STRING": "Cc1nnc2n1-c1ccc(Cl)cc1C(c1ccccc1Cl)=NC2",
    "UNIT_SPEC": "%",
    "MCHC": 32.8
  },
  {
    "STRUCTURE_STRING": "COC(=O)C1=C(C)NC(C)=C(C(=O)OC)C1c1ccccc1[N+](=O)[O-]",
    "UNIT_SPEC": "%",
    "MCHC": 33.3
  },
  {
    "STRUCTURE_STRING": "CN/C(=N/CCSCc1nc[nH]c1C)NC#N",
    "UNIT_SPEC": "%",
    "MCHC": 35.1
  },
  {
    "STRUCTURE_STRING": "O=C(OC[C@H]1O[C@@H](OC(=O)c2cc(O)c(O)c(OC(=O)c3cc(O)c(O)c(O)c3)c2)[C@H](OC(=O)c2cc(O)c(O)c(OC(=O)c3cc(O)c(O)c(O)c3)c2)[C@@H](OC(=O)c2cc(O)c(O)c(OC(=O)c3cc(O)c(O)c(O)c3)c2)[C@@H]1OC(=O)c1cc(O)c(O)c(OC(=O)c2cc(O)c(O)c(O)c2)c1)c1cc(O)c(O)c(OC(=O)c2cc(O)c(O)c(O)c2)c1",
    "UNIT_SPEC": "%",
    "MCHC": 33.6
  }
]

As a next step, examine the compound that follows.
Qu. Entry CNC(=C[N+](=O)[O-])NCCSCc1ccc(CN(C)C)o1 needs its MCHC filled in; supply it.
Ans. 34.8

----------
Each entry below carries its recorded LIVER.
Species on record: Rattus norvegicus
ASSAY: Open TG-GATES - Regimen: Daily Repeat
Format: toxicity, organism-based, Sprague-Dawley
Parameters: regimen Daily Repeat, gender Male, age 6 weeks
RUN_PARAMETERS: in vivo, po, 0 mg/kg, […], tissue Liver, route gavage, dose level Control, time 7 day
Express your answer in g, writing the number without its unit.

Qu. Entry O=C(OC[C@H]1O[C@@H](OC(=O)c2cc(O)c(O)c(OC(=O)c3cc(O)c(O)c(O)c3)c2)[C@H](OC(=O)c2cc(O)c(O)c(OC(=O)c3cc(O)c(O)c(O)c3)c2)[C@@H](OC(=O)c2cc(O)c(O)c(OC(=O)c3cc(O)c(O)c(O)c3)c2)[C@@H]1OC(=O)c1cc(O)c(O)c(OC(=O)c2cc(O)c(O)c(O)c2)c1)c1cc(O)c(O)c(OC(=O)c2cc(O)c(O)c(O)c2)c1 [TANNIC ACID] needs its LIVER filled in; supply it.
Ans. 12.3

Qu. Entry COC(=O)C1=C(C)NC(C)=C(C(=O)OC)C1c1ccccc1[N+](=O)[O-] [NIFEDIPINE] needs its LIVER filled in; supply it.
Ans. 12.1

Qu. Entry NC1=NC(=O)C(c2ccccc2)O1 (centres undefined) [PEMOLINE] needs its LIVER filled in; supply it.
Ans. 13.2

Qu. Entry CN1C(=O)CCS(=O)(=O)C1c1ccc(Cl)cc1 (centres undefined) [CHLORMEZANONE] needs its LIVER filled in; supply it.
Ans. 13

Qu. Entry CCOc1ccc(NC(C)=O)cc1 [PHENACETIN] needs its LIVER filled in; supply it.
Ans. 12.1

Qu. Entry CN(C)CCC(c1ccc(Cl)cc1)c1ccccn1 (centres undefined) [CHLORPHENIRAMINE] needs its LIVER filled in; supply it.
Ans. 12.2

Qu. Entry CN/C(=N/CCSCc1nc[nH]c1C)NC#N [CIMETIDINE] needs its LIVER filled in; supply it.
Ans. 12.5

Qu. Entry Nc1c2c(nc3ccccc13)CCCC2 [TACRINE] needs its LIVER filled in; supply it.
Ans. 11.2

Qu. Entry CCCc1cc(=O)[nH]c(=S)[nH]1 [PROPYLTHIOURACIL] needs its LIVER filled in; supply it.
Ans. 11.7
